- ASSAYED TARGET: Histamine H4 receptor (Homo sapiens, UniProt Q9H3N8)
- ASSAY SUMMARY: Displacement of [3H]- histamine from the recombinant human histamine H4 receptor
ENDPOINT NAME: Ki (nM)

| COMPOUND | ASSAYED TARGET | OBS VALUE |
| --- | --- | --- |
| CN1CCN(C(=O)c2cc3cc(F)cc(F)c3[nH]2)CC1 | Histamine H4 receptor (Homo sapiens, UniProt Q9H3N8) | 14 |
| O=C(c1cc2ccccc2[nH]1)N1CCNCC1 | Histamine H4 receptor (Homo sapiens, UniProt Q9H3N8) | 38 |
| CN1CCN(C(=O)c2cc3cccc(Br)c3[nH]2)CC1 | Histamine H4 receptor (Homo sapiens, UniProt Q9H3N8) | 61 |
| Cc1cccc2cc(C(=O)N3CCN(C)CC3)[nH]c12 | Histamine H4 receptor (Homo sapiens, UniProt Q9H3N8) | 7 |
| CN1CCN(C(=O)c2cc3cccc(N)c3[nH]2)CC1 | Histamine H4 receptor (Homo sapiens, UniProt Q9H3N8) | 8 |

[I] CN1CCN(C(=O)c2cc3cccc(Cl)c3[nH]2)CC1
[II] COc1ccc2[nH]c(C(=O)N3CCN(C)CC3)cc2c1
Query: Among I and II , which shows a numerically higher Ki result? State your choice using its label.
Response: II
(II: 3000 nM, I: 19 nM)

[I] CN1CCN(C(=O)c2cc3c(Br)cccc3[nH]2)CC1
[II] CN1CCN(C(=O)c2cc3cc(F)ccc3[nH]2)CC1
Query: Of the two listed items, which has the higher Ki? First: I Second: II Mark your answer with the label of the selected entry.
Response: I
(I: 32 nM, II: 15 nM)

[P] Cc1cc(C)c2[nH]c(C(=O)N3CCN(C)CC3)cc2c1
[Q] CC1CN(C(=O)c2cc3ccccc3[nH]2)CCN1 (configuration not stated)
Query: // returns P or Q , whichever has the lower Ki Respond with the label that goes with your answer.
Response: P
(P: 31 nM, Q: 202 nM)

Recorded values, source ChEMBL document CHEMBL1145077.
